# ASSAYED SYSTEM: T1, KicGAS (Kaposi sarcoma-associated herpesvirus …, UniProt Q2HR80 1-131)
# T1 sequence: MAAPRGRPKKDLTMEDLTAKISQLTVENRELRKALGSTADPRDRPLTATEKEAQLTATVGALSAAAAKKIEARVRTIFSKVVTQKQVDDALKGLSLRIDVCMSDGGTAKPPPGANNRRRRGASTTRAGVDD
# PROTOCOL SUMMARY: fluorescence polarization; Hill n 1.85; EMSA: 20 mM Tris-HCl pH 7.4, 150 mM NaCl, 10% glycerol, on ice, 20 nM FAM-DNA, gel at 4 C; FP: 400 pg/ul FAM-DNA, buffer and temperature not stated; Hill fits
# STUDY CONDITIONS: protein: recombinant; tags: Avi-His6-SUMO removed (tag-free); label: 5' FAM
READOUT TYPE: Kd (nM)
Answer format: numeric, nM implied, no suffix.

## Task Please supply the value of reported Kd for the item TACAGATCTACTAGTGATCTATGACTGATCTGTACATGATCTACA (ssDNA) [ssISD45]
## Result 260
